Answer each item with its documented pIC50.
- target: UniProt Q14524
- Sequence (Q14524 whole entry): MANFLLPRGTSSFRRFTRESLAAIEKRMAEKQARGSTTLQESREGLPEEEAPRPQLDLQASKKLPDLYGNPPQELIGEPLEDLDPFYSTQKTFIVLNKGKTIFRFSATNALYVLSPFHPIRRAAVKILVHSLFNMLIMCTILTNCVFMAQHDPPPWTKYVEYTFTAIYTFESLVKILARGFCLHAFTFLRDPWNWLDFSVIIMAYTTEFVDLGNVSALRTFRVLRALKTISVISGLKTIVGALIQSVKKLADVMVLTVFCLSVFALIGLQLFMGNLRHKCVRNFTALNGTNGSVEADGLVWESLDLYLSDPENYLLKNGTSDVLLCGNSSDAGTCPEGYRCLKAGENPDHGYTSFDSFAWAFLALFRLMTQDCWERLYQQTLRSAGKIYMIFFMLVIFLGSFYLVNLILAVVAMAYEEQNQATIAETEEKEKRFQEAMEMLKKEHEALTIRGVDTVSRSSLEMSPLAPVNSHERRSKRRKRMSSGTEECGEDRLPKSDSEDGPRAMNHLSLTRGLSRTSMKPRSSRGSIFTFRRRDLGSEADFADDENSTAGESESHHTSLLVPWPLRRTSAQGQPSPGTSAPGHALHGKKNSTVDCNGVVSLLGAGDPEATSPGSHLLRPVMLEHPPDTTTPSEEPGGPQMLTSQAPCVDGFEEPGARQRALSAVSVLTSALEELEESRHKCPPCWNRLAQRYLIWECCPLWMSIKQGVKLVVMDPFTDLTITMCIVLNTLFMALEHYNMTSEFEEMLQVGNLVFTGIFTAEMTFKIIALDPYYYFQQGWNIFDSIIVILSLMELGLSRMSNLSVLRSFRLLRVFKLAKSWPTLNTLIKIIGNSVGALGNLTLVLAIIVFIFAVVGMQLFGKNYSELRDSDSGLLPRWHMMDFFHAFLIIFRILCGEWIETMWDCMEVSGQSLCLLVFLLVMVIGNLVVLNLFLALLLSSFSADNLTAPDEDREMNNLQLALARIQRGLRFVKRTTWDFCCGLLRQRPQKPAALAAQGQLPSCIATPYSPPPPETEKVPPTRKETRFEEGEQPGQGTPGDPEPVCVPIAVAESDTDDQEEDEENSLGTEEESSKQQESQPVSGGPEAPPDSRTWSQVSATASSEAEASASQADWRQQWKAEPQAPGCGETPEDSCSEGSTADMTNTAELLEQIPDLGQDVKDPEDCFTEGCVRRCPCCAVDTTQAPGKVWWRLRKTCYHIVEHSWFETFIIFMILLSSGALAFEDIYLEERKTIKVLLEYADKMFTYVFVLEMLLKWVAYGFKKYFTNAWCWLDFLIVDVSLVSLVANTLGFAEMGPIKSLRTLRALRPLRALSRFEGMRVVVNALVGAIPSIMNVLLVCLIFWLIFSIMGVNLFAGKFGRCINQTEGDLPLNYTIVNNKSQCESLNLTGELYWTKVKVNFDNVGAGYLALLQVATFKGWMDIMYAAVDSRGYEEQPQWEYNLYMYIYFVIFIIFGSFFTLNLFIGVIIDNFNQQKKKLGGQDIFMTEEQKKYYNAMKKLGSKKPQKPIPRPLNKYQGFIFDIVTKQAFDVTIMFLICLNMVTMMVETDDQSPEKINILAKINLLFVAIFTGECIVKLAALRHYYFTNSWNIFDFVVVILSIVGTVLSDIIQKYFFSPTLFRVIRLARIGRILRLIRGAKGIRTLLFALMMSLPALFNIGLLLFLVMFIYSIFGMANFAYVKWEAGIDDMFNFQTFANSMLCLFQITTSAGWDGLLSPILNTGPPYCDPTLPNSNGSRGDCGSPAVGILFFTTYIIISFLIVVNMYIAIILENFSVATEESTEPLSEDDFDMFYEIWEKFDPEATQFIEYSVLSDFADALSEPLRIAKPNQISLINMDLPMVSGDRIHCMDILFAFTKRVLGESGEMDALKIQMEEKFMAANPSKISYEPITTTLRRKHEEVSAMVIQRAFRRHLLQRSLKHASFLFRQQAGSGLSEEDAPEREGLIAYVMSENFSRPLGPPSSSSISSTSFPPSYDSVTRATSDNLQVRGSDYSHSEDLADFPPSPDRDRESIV
- experiment.notes: Human Nav1.5 inhibitory activity evaluation (automated patch clamp QPatch16X, HEK293 cells stably expressing human Nav1.5)
- Format: cell-based
- details: HEK293 cells stably expressing human Nav1.5, automated patch clamp QPatch16X
pIC50: −log10 of the molar value.

Reference set, count: 6
O=C(N[C@H]1COc2ccc(-c3ccccn3)cc2C1)c1cc2n(n1)CCC(c1ccccc1F)O2 (stereo partly drawn) :: ≤ 5.52
CC1CCn2nc(C(=O)N[C@H]3COc4ccc(Cl)cc4C3)cc2O1 (stereo partly drawn) :: ≤ 5.52
O=C(N[C@H]1COc2ccc(Br)cc2C1)c1cn2c(n1)CCC(C(F)(F)F)C2 (stereo partly drawn) :: 5.52 to 6.00
O=C(N[C@H]1COc2ccc(COCC(F)(F)F)cc2C1)c1nc2n(c1-c1ccn[nH]1)CCCC2 :: > 6.00
N#Cc1ccc2c(c1)C[C@@H](NC(=O)c1cc3n(n1)CCC(COC(F)(F)F)O3)CO2 (single isomer, unassigned) [134 (isomer A)] :: 5.52 to 6.00
O=C(N[C@H]1COc2ccc(C(F)(F)F)cc2C1)c1nc2n(c1-c1ccn[nH]1)CCCC2 :: > 6.00

Please give pIC50 for each item listed below.
1. COc1ncccc1C1CCc2nc(C(=O)N3CCC(c4ccccc4)C3)cn2C1 (stereo not drawn)
2. CCCC1CCn2nc(C(=O)N[C@H]3COc4ccc(C#N)cc4C3)cc2O1 (single isomer, unassigned) [95 (isomer B)]
3. O=C(N[C@H]1COc2ccc(C(F)F)cc2C1)c1cn2c(n1)CCC(OCC(F)(F)F)C2 (stereo partly drawn)
4. O=C(NC1COc2cccc(Cl)c2C1)c1cc2n(n1)CCC(c1ccccc1)O2 (stereo not drawn)
5. CCOc1cccc(CCNC(=O)c2cc3n(n2)CCC(c2ccccc2)O3)c1 (stereo not drawn)

Response:
["≤ 5.52", "≤ 5.52", "≤ 5.52", "≤ 5.52", "≤ 5.52"]
